# Test system: MCF7 breast
# Method summary: NCI-60 one-dose screen, 48 h
# Run parameters: 10 µM unless noted
This is part of a sample that, as a whole, favours compounds with a hit. Of some 83,000 tested, about 20% had one in any assay. The source made the active and inactive calls. How the source made its calls: active means growth percent below 10; inactive means the rest.
Outcome field: choose from class 1 (active), class 0 (inactive)

Reference set, count: 3
[
  {
    "Entry smiles": "CS(=O)(=O)c1ccc(-c2[nH]c3ccc(F)cc3c2/C=N/O)cc1",
    "Assigned label": "class 0"
  },
  {
    "Entry smiles": "C/C(=N\\NC(N)=S)c1nc2ccc(Cl)cc2[nH]1",
    "Assigned label": "class 1"
  },
  {
    "Entry smiles": "Cc1cc(-c2noc(C(F)(F)F)n2)ccc1N1CCN(c2cc(C(=O)N(C)C)no2)CC1",
    "Assigned label": "class 0"
  }
]

[ask] What outcome does the record of this test show for C=C1C(=O)O[C@H]2[C@H]1CC/C(C(=O)NCCCCCCCCNC(=O)/C1=C/CC[C@@]3(C)O[C@H]3[C@H]3OC(=O)C(=C)[C@@H]3CC1)=C\CC[C@@]1(C)O[C@@H]21 ?
[reply] class 0

[ask] What outcome does the record of this test show for Cc1nc2ccc(C(=O)NCc3cc(C(=O)O)c(C)o3)cc2nc1C ?
[reply] class 0

[ask] What outcome does the record of this test show for CC1=CC(=O)C(C(C)C)=CC1=Nc1cc(Br)c(O)c(Br)c1 ?
[reply] class 0

[ask] What outcome does the record of this test show for Cc1csc(NC(=O)c2sc3nc(-c4cccs4)ccc3c2N)n1 ?
[reply] class 0

[ask] What outcome does the record of this test show for C=C(C)[C@@H]1CC[C@]2(CO)CC[C@]3(C)[C@H](CC[C@@H]4[C@@]5(C)C=C(C#N)C(=O)C(C)(C)[C@@H]5CC[C@]43C)[C@@H]12 ?
[reply] class 1

[ask] What outcome does the record of this test show for CC(=O)c1ccc2c(c1)CCN2 ?
[reply] class 0

[ask] What outcome does the record of this test show for N#Cc1c(-c2ccc(C(F)(F)F)cc2)cc(N2CC(O)C2)n2c1nc1ccccc12 ?
[reply] class 0

[ask] What outcome does the record of this test show for COC(=O)c1ccc(CSc2nnc(-c3ccncc3)o2)cc1 ?
[reply] class 0
